The measured values listed here are drawn from the supplement of paper PMC13380429.

- Test system: Caco-2
- measurement.notes: cell viability relative to DMSO; higher = less toxic
- condition.details: 72 h; 1 nM
The entries below come with measured cell viability values attached.
Provide only the numeric value, understood in %.

Examples from the recorded data:
O=C(O)c1cc(=O)c2ccccc2o1 :: 99.8
CO[C@@]1(NC(=O)Cc2cccs2)C(=O)N2C(C(=O)O)=C(COC(N)=O)CS[C@@H]21 :: 90.1
O=[N+]([O-])c1cn2c(n1)OC[C@@H](OCc1ccc(OC(F)(F)F)cc1)C2 :: 98.3
CN[C@@H]1[C@@H](O)[C@@H](O[C@@H]2[C@@H](O)[C@H](O[C@H]3OC(CN)=CC[C@H]3N)[C@@H](N)C[C@H]2N)OC[C@]1(C)O [Sisomicin (sulfate)] :: 100
C[C@H](Nc1cc(-c2cnn(C)c2)cc(Nc2cnccn2)n1)c1ccc(F)cc1 :: 99.1

Item: CN(C)CC[C@@]1(c2ccc(Cl)cc2)Cc2ccccc2C(=O)O1 (racemic) [AC-7954-(+/-)] | cell viability: 103

Entry CN1C[C@@H]2CN(c3ccc(-c4ccccc4)nn3)C[C@@H]2C1 , cell viability reported as 105

// cell viability lookup, molecule = Cc1c(-c2cnccn2)ssc1=S , result: 94.2

Notebook: CCCCCCCCc1ccc(-c2ccc(C(=O)O)cc2)cc1 , cell viability read as 100

====

- Tested on: HepG2
- measurement.notes: cell viability relative to DMSO; higher = less toxic
- condition.details: 72 h; 10000 nM
measurement.kind: cell viability

C#CCN[C@@H]1CCc2ccccc21 :: 99.6%
CC[C@H](CO)Nc1nc(NCc2ccc(-c3ccccn3)cc2)c2ncn(C(C)C)c2n1 [CR8-(R)] :: 8.8%
COc1nccc(-c2c(-c3ccc(F)cc3)ncn2[C@H]2CC[C@H](O)CC2)n1 :: 108%
O=P1(N(CCCl)CCCl)NCCCO1 (centres undefined) [cyclophosphamide] :: 105%
CCCCN(CCCC)CCC(O)c1cc2c(Cl)cc(Cl)cc2c2cc(C(F)(F)F)ccc12 (centres undefined) :: 71.8%
CCN(CC)Cc1ccc(C(=O)N(CCc2ccccc2OC)[C@@H]2CCNC2)cc1 :: 70.5%
CNC(=O)c1cc(Oc2ccc(NC(=O)Nc3cc(C(C)(C)C)nn3-c3ccc4ncccc4c3)c(F)c2)ccn1 :: 6.1%
O=C(O)Cc1cccnc1C(=O)O :: 93.9%

In the following, a different molecule is considered.
For record CS(=O)(=O)c1cc(F)cc2c3c(n(Cc4ccc(Cl)cc4)c12)[C@@H](CC(=O)O)CC3 the listed cell viability is 101%

====

- Test system: Vero E6
- measurement.notes: cell viability relative to DMSO; higher = less toxic
- condition.details: 72 h; 1000 nM
measurement.kind: cell viability (%)
Numeric only. Scale: %

Please review the following examples before continuing.
O=C(NC[C@H](O)CN1CCc2ccccc2C1)c1cc(NC2COC2)ncn1 :: 95.8
COc1ccccc1N1CCN(CC(O)COc2cc(OC)c(OC)c(OC)c2)CC1 (stereo unspecified) :: 99.1
Nc1nccc(-c2ccc3noc(-c4ccc(Cl)cc4)c3c2)n1 :: 98.5
CN1c2ccccc2C(=O)N2CCc3c([nH]c4ccccc34)C21 (stereo in doubt) :: 74.1
COc1cc(OC)c(C(=O)CCCCN2CCC3(CC2)NC(=O)NC3=O)cc1NS(=O)(=O)c1ccc(C(F)(F)F)cc1 :: 99.5

Now for another entry.
The molecule listed as CCN(CC)C(=S)S [ditiocarb-sodium-trihydrate] shows cell viability equal to 103

====

- Test system: Vero E6
- measurement.notes: cell viability relative to DMSO; higher = less toxic
- condition.details: 72 h; 10 nM
measurement.kind: cell viability (%)
Numbers only here, please. The scale is %.

Solved cases (3 shown):
O=C(Nc1ccccc1Br)N[C@@H]1CCN(c2ccc(C(F)(F)F)cn2)C1 :: 100
CCCCCCCCc1ccc(-c2ccc(C(=O)O)cc2)cc1 :: 99.7
O=C(CCCN1CCC2(CC1)C(=O)NCN2c1ccccc1)c1ccc(F)cc1 :: 103

Entry COc1ccc(C2CC(c3c(O)cc(C)oc3=O)=NCCS2)c(OC)c1 (stereo not given) under Vero E6 had cell viability of 105

Here COc1cc2c(NC3CCN(C(C)C)CC3)nc(N3CCC(F)(F)CC3)nc2cc1OCCCN1CCCC1 was tested on Vero E6, and its cell viability came to 102

cell viability on Vero E6 for CCn1cnc(C(=O)NC)c1C(=O)NC is 96.2

Item N#Cc1cn([C@@H]2O[C@H](CO)[C@@H](O)[C@H]2O)c2ncnc(N)c12 ; assay system Vero E6; cell viability reported as 84.4

The compound CC(=O)[C@H]1CC[C@H]2[C@@H]3CC=C4C[C@@H](OC(=O)CCC(=O)O)CC[C@]4(C)[C@H]3CC[C@]12C [pregnenolone-succinate] on Vero E6: cell viability was 96.8

The compound Nc1c(CC(=O)O)cccc1C(=O)c1ccc(Br)cc1 , tested on Vero E6, showed cell viability of 103

The measured cell viability that CC(=O)Oc1ccc(C(c2ccc(OC(C)=O)cc2)c2ccccn2)cc1 showed for Vero E6 is 94.1

====

- Tested on: Calu-3
- measurement.notes: cell viability relative to DMSO; higher = less toxic
- condition.details: 72 h; 1000 nM
Listed next: entries and their corresponding cell viability.
Entry rule: numbers only, all in %.

C=CC1=C(C)c2cc3[nH]c(cc4nc(cc5[nH]c(cc1n2)c(C)c5CCC(=O)O)C(CCC(=O)O)=C4C)c(C)c3C=C :: 97.5

Short answer for CCNC(=O)NS(=O)(=O)c1sc(CC(C)C)cc1-c1ccc(Cn2c(-c3ccccc3)nc(OC)c2C=O)cc1 : cell viability was 93.8

Reported cell viability ( CN(C)CC[C@@]1(c2ccc(Cl)cc2)Cc2ccccc2C(=O)O1 (racemic) [AC-7954-(+/-)] ) = 96.5

cell viability for Cc1cc(Nc2ncnc3ccc(NC4=NC(C)(C)CO4)cc23)ccc1Oc1ccn2ncnc2c1 is 47.3

Input O=C(O)c1cc(O)c2c(Cl)cc(Cl)cc2n1 . Output cell viability: 110

====

- System: HepG2
- measurement.notes: cell viability relative to DMSO; higher = less toxic
- condition.details: 72 h; 10000 nM
measurement.kind: cell viability (%)
Quick reminder: number only, in %, skip the unit.

response.value for CCNC(=O)c1noc(-c2cc(C(C)C)c(O)cc2O)c1-c1ccc(CN2CCOCC2)cc1 (field: cell viability) = 1.2

Documented cell viability of CCCCCCCCCC(=O)OC1(c2ccc(Cl)cc2)CCN(CCCC(=O)c2ccc(F)cc2)CC1 [haloperidol-decanoate] : 97.1

Entry Cc1cc(=O)[nH]c(=S)[nH]1 , cell viability reported as 105

====

Quick reference: cell viability of the listed items.
- System: Vero E6
- measurement.notes: cell viability relative to DMSO; higher = less toxic
- condition.details: 72 h; 10 nM
The reply should contain only the number, in %.

Would you please look over these solved cases?
C[C@H](CCC(=O)O)[C@H]1CC[C@H]2[C@@H]3CC[C@@H]4C[C@H](O)CC[C@]4(C)[C@H]3C[C@H](O)[C@]12C :: 103
CN[C@H](CNC(=O)N1CCC[C@@H]([C@@H](OCCNC(=O)OC)c2cccc(Cl)c2)C1)C[C@H]1CCCOC1 :: 101
NC(=O)c1ccc(N(C(N)=O)c2c(F)cccc2F)nc1-c1ccc(F)cc1F :: 105
N#CSc1cc(SC#N)c(N)nc1N :: 104
CN1C(=O)CCS(=O)(=O)C1c1ccc(Cl)cc1 (stereo unspecified) :: 106

Notebook: O=C(Nc1cccc2c(=O)cc(-c3nnn[nH]3)oc12)c1ccc(OCCCCc2ccccc2)cc1 , cell viability read as 94.4

The compound listed as CC(C)N(C[C@H]1O[C@@H](n2cnc3c(N)ncnc32)[C@H](O)[C@@H]1O)[C@H]1C[C@@H](CCc2nc3cc(C(C)(C)C)ccc3[nH]2)C1 shows cell viability equal to 106

So, O=C/C=C/c1ccccc1 ? Its cell viability was 99.5

For CS(=O)(=O)c1cc(F)cc2c3c(n(Cc4ccc(Cl)cc4)c12)[C@@H](CC(=O)O)CC3 the compound record lists cell viability as 99.6

Measured cell viability of CCC(C)(CN(C)C)OC(=O)c1ccccc1 (stereo unspecified) : 99.8

====

- System: Calu-3
- measurement.notes: cell viability relative to DMSO; higher = less toxic
- condition.details: 72 h; 10000 nM
measurement.kind: cell viability (%)
The figure you give is taken to be in %; do not add the unit.

O=C(O)Cc1cccnc1C(=O)O [homoquinolinic-acid] :: 111
Nc1cc(F)ccc1NC(=O)/C=C/c1cnn(C/C=C/c2ccccc2)c1 [RGFP966] :: 51.4
CC(=O)[C@]1(O)Cc2c(O)c3c(c(O)c2[C@@H](O[C@H]2C[C@H](N)[C@H](O)[C@H](C)O2)C1)C(=O)c1ccccc1C3=O [idarubicin] :: 9.7
CC(C)N(CCCNC(=O)Nc1ccc(C(C)(C)C)cc1)C[C@H]1O[C@@H](n2ccc3c(N)ncnc32)[C@H](O)[C@@H]1O :: 108
CCN(CC)C(=S)S [ditiocarb-sodium-trihydrate] :: 70.2

Measured cell viability, Cc1cc(/C=C/c2ccc3cc(N(C)C)ccc3[n+]2C)c(C)n1-c1ccccc1 [pyrvinium-pamoate] : 9.3

cell viability reported for this compound NCCCCN=C(N)N [agmatine] : 99.9

Just so you know, measured cell viability for Cc1cc(C#N)cc(C)c1Oc1nc(Nc2ccc(C#N)cc2)nc(N)c1Br [etravirine] came out at 103

GET /value?item= NC(Cc1ccc(I)cc1)C(=O)O (stereo in doubt) [4-iodo-L-phenylalanine] &field=cell viability returns 95.2

The recorded cell viability for CC(C)(C)c1cc(C=C(C#N)C#N)cc(Br)c1O [AG-1024] is 100

Record CCNC(=O)NS(=O)(=O)c1sc(CC(C)C)cc1-c1ccc(Cn2c(-c3ccccc3)nc(OC)c2C=O)cc1 [AVE-0991] . Reported cell viability: 97.9
